B1: glmS ribozyme (parent)
chain: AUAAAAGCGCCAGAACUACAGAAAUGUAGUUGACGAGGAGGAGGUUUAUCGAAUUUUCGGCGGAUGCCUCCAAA

Variants of: B1
Experiment: self-cleavage kobs at 2500 uM GlcN6P; higher = faster cleavage; RNA array
Details: with glucosamine-6-phosphate
Fewer inactive variants are shown than the library holds.
I would appreciate it if you labelled entries Condition met when self-cleavage kobs at 2500 uM GlcN6P is 0.0002 s⁻¹ or higher, otherwise Condition not met.

Solved entries:
G44U C58U C71U
Condition not met
U47A A53C
Condition met
G13C G35C
Condition not met
C8A G35A G38A A53G
Condition not met

Data request: Threshold query (self-cleavage kobs at 2500 uM GlcN6P >= 0.0002 s⁻¹) on A42G C58A
Data returned: Condition met

Data request: // inclusive: self-cleavage kobs at 2500 uM GlcN6P at least 0.0002 s⁻¹? input: U57C C67G
Data returned: Condition not met

Data request: Does self-cleavage kobs at 2500 uM GlcN6P meet or surpass 0.0002 s⁻¹ for C8U G35A G63U ?
Data returned: Condition not met

Data request: Given the entry G66A C70G , answer whether its self-cleavage kobs at 2500 uM GlcN6P meets or surpasses 0.0002 s⁻¹.
Data returned: Condition met

Data request: Kindly determine if self-cleavage kobs at 2500 uM GlcN6P recorded for C11A U54A is above or exactly 0.0002 s⁻¹.
Data returned: Condition not met

Data request: Check the entry G40U C70G : does self-cleavage kobs at 2500 uM GlcN6P equal or exceed 0.0002 s⁻¹?
Data returned: Condition met

Data request: Is self-cleavage kobs at 2500 uM GlcN6P at least 0.0002 s⁻¹? Consider A15C U49G
Data returned: Condition not met

Data request: Say whether G9C A14G G37U G62C C71A shows self-cleavage kobs at 2500 uM GlcN6P of 0.0002 s⁻¹ or more.
Data returned: Condition not met

Data request: For this variant, is measured self-cleavage kobs at 2500 uM GlcN6P 0.0002 s⁻¹ or higher? A33C G40A G43C A52C
Data returned: Condition not met
